# assay.target: Primate GnRH-2 receptor (Primate (from a CV-1 cell genome))
# protocol.notes: cell-based or functional assay
[ ]: non-standard residue; d: D form. pGlu = O=C1CC[C@@H](C(=O)O)N1
observed.property: Ratio^a (EC50 relative to the EC50 of GnRH-2), luciferase activation

[pGlu]HWSY[dA]WLPG-NH2 (SMILES CC(C)C[C@H](NC(=O)[C@H](Cc1c[nH]c2ccccc12)NC(=O)[C@@H](C)NC(=O)[C@H](Cc1ccc(O)cc1)NC(=O)[C@H](CO)NC(=O)[C@H](Cc1c[nH]c2ccccc12)NC(=O)[C@H](Cc1c[nH]cn1)NC(=O)[C@@H]1CCC(=O)N1)C(=O)N1CCC[C@H]1C(=O)NCC(N)=O) [[Tyr^5, D-Ala^6, Leu^8]GnRH-2]	3.01 ratio to GnRH-2
[pGlu]HWSH[dA]YWPG-NH2 (SMILES C[C@@H](NC(=O)[C@H](Cc1c[nH]cn1)NC(=O)[C@H](CO)NC(=O)[C@H](Cc1c[nH]c2ccccc12)NC(=O)[C@H](Cc1c[nH]cn1)NC(=O)[C@@H]1CCC(=O)N1)C(=O)N[C@@H](Cc1ccc(O)cc1)C(=O)N[C@@H](Cc1c[nH]c2ccccc12)C(=O)N1CCC[C@H]1C(=O)NCC(N)=O) [[D-Ala^6, Tyr^7, Trp^8]GnRH-2]	6.61 ratio to GnRH-2

Ratio^a (EC50 relative to the EC50 of GnRH-2), luciferase activation in this record for [pGlu]HWSH[dA]WYPG-NH2 (SMILES C[C@@H](NC(=O)[C@H](Cc1c[nH]cn1)NC(=O)[C@H](CO)NC(=O)[C@H](Cc1c[nH]c2ccccc12)NC(=O)[C@H](Cc1c[nH]cn1)NC(=O)[C@@H]1CCC(=O)N1)C(=O)N[C@@H](Cc1c[nH]c2ccccc12)C(=O)N[C@@H](Cc1ccc(O)cc1)C(=O)N1CCC[C@H]1C(=O)NCC(N)=O, Chemically synthesised by AnyGen Co) [[D-Ala^6]GnRH-2] : 0.38 ratio to GnRH-2

Ratio^a (EC50 relative to the EC50 of GnRH-2), luciferase activation in this record for [pGlu]HWSL[dA]WYPG-NH2 (SMILES CC(C)C[C@H](NC(=O)[C@H](CO)NC(=O)[C@H](Cc1c[nH]c2ccccc12)NC(=O)[C@H](Cc1c[nH]cn1)NC(=O)[C@@H]1CCC(=O)N1)C(=O)N[C@H](C)C(=O)N[C@@H](Cc1c[nH]c2ccccc12)C(=O)N[C@@H](Cc1ccc(O)cc1)C(=O)N1CCC[C@H]1C(=O)NCC(N)=O) [[Leu^5, D-Ala^6]GnRH-2] : 11 ratio to GnRH-2

Where do these numbers come from? They come from patent US20060135432A1.
